Hello, the source for this data is PubChem BioAssay (NCI), in case you need it.

Tested on: NCI/ADR-RES ovarian
protocol: NCI-60 one-dose screen, 48 h (100 = growth as untreated, 0 = no growth, -100 = all killed)
measurement_context: 10 µM unless noted
About 83,000 compounds went through this panel and 20% of them were active in at least one assay; those are over-represented in the sample as a whole.
property_measured: growth (%)
Please give a number only; it is taken to be in %.

As a guide, the following entries are already answered.
[[record]]
mol = "CC(=O)Oc1cccc(S(=O)(=O)n2cc(C(=O)C(=O)Nc3ccncc3)c3ccccc32)c1"
measured_result = 80.2

[[record]]
mol = "O=S(=O)(NCCNc1nccc(-c2c(-c3ccc(F)cc3)nc3sccn23)n1)c1ccc(F)cc1"
measured_result = 81.2


Note down growth recorded for CC[N+](CC)=c1cc2oc3cc(N(C)C)ccc3nc-2cc1C
79.3

----------
System: SF-539 CNS
protocol: NCI-60 one-dose screen, 48 h (100 = growth as untreated, 0 = no growth, -100 = all killed)
measurement_context: 10 µM unless noted
Compounds without any hit were thinned out: in the full panel of roughly 83,000, 20% have a hit.
Where growth equals or exceeds 90%, the correct label is yes (1); where it does not, the label is no (0).

Here's what some known entries look like.
[[record]]
compound = "O=C(Nc1cccc(-n2cc(-c3ccncc3)c(-c3ccc(Cl)c(O)c3)n2)c1)Nc1cc(C(F)(F)F)cc(C(F)(F)F)c1"
assigned_label = "no (0)"

[[record]]
compound = "COc1ccc(/C=C2/C(=O)NC(SCC(=O)N3CCN(c4cc5c(cc4F)c(=O)c(C(=O)O)cn5C4CC4)CC3)=NC2N)cc1OC (centres undefined)"
assigned_label = "yes (1)"

[[record]]
compound = "Fc1ccc(Nc2nc(NCCNc3ccnc4cc(Cl)ccc34)nc(N3CCOCC3)n2)cc1"
assigned_label = "no (0)"

[[record]]
compound = "O=C(NCCNc1nccc(-n2ccc3cccnc32)n1)c1ccc(C(F)(F)F)cc1"
assigned_label = "yes (1)"

[[record]]
compound = "CCCCCCCCCCCCNC(=O)[C@H]1CSC(c2cc(Br)cs2)N1 (some centres undefined)"
assigned_label = "no (0)"

[[record]]
compound = "CCCCC(CC)OC(=O)C(Br)CC (centres undefined)"
assigned_label = "yes (1)"

[[record]]
compound = "CCCCCCCCCCCC(=O)NCCC[N+](C)(C)CC(=O)[O-]"
assigned_label = "yes (1)"


Okay, now this compound:
Evaluate COc1cc2c(cc1O)CCN1C[C@@H](CC(C)C)[C@@H](O)C[C@@H]21 : growth at minimum 90%?
yes (1)

----------
Tested on: SNB-19 CNS
protocol: NCI-60 one-dose screen, 48 h (100 = growth as untreated, 0 = no growth, -100 = all killed)
measurement_context: 10 µM unless noted
The panel holds about 83,000 compounds, 20% with a hit somewhere; the sample as a whole holds those more often.
property_measured: growth (%)
Please give a number only; it is taken to be in %.

[[record]]
molecule = "O=C1NN(C(=O)c2ccc(Cl)cc2)C(c2ccccc2)=N/C1=C\\c1cn(-c2ccccc2)nc1-c1ccccc1"
target_entity = "SNB-19 CNS"
measured_result = 90.7


Write down the reported growth (system: SNB-19 CNS) of COc1ccc(-c2ccc(-c3ccc(-c4ccc(C(=N)N)cc4)s3)s2)cc1OC
87.7

Write down the reported growth (system: SNB-19 CNS) of COc1cc(NC(=O)SC2=NCCS2)cc(OC)c1
90.5

Write down the reported growth (system: SNB-19 CNS) of C=C1CCC2C3(C)COC(C)(C)OC3CCC2(C)C1C/C=C1/C(=O)OCC1Oc1ccccc1OC (stereo unspecified)
88.7

Write down the reported growth (system: SNB-19 CNS) of Cc1ccc(-c2cc3nc(C(Cl)Cl)nc(-c4ccccc4C)n3n2)cc1
70.2

Write down the reported growth (system: SNB-19 CNS) of CCCCOc1ccc(/C=C2/SC(N3CCOCC3)=NC2=O)cc1OCC
90.8
